- PROCEDURE_SUMMARY: Toxicity to brine shrimp larvae
- Assay type: organism-based
- TEST_CONTEXT: artemia, in vivo
The reader will find reported LC50 values listed item by item below.
PARAMETER_MEASURED: LC50 (µg/mL)

INSERT INTO measurements (item_smiles, parameter_measured, readout_value) VALUES
  ('CCCCCCCCCCC[C@@H](O)[C@H]1CC[C@H]([C@H](O)CCCCCCCCCC[C@@H]2C[C@H](CC(C)=O)C(=O)O2)O1', 'LC50', 12.3),
  ('CCCCCCCCCCCCCC[C@H](O)[C@@H]1CC[C@@H]([C@@H]2CC[C@@H](CCCCC[C@@H](O)CC3=C[C@H](C)OC3=O)O2)O1', 'LC50', 1.06),
  ('CCCCCCCCCCC[C@@H](O)[C@H]1CC[C@H]([C@H](O)CCCCCCCCCC[C@H]2C[C@H](CC(C)=O)C(=O)O2)O1', 'LC50', 18.2);
